The molecules below have reported AC50 for Cytochrome P450 2C9 (Homo sapiens, UniProt P11712).
readout_kind: AC50

# molecule, readout_kind, test_result
measured = [
    ("COC(=O)c1nnc(NC(=O)c2ccccc2)[nH]1", "AC50", "3.98 µM (inconclusive)"),
    ("CCCS(=O)(=O)N1CCCC(C(=O)NCCN2CCOCC2)C1 (stereo unspecified)", "AC50", "7.08 µM (inconclusive)"),
    ("C[C@H](NC[C@H](O)CP(=O)(O)Cc1ccccc1)c1ccc(Cl)c(Cl)c1", "AC50", "15.8 µM (inconclusive)"),
    ("O=C(c1ccccc1Nc1ccc(SC(F)F)cc1)N1CCCCC1", "AC50", "2.82 µM (inconclusive)"),
    ("COc1cc2c(cc1OC)CN(CC(=O)Nc1ccc3c(c1)OCO3)CC2", "AC50", "14.1 µM (inconclusive)"),
    ("CCN(Cc1cc(Cl)cc(C)c1O)Cc1c(O)ccc2ccccc12", "AC50", "5.01 µM (inconclusive)"),
    ("CC(C)c1ccc(O)c(NC(=O)c2nc[nH]n2)c1", "AC50", "20 µM (inconclusive)"),
    ("COc1ncc2nc(-c3cc(F)cc(F)c3)c(=O)n(C3CC3)c2n1", "AC50", "31.6 µM (inconclusive)"),
    ("CS(=O)(=O)Nc1cccc(-c2ccc3ncnc(NCc4cccs4)c3c2)c1", "AC50", "0.501 µM (inconclusive)"),
    ("N#Cc1ccccc1/C=N/Nc1nc(-c2ccccc2)c2cc(Cl)ccc2n1", "AC50", "2.24 µM (inconclusive)"),
    ("COc1cccc(Cn2c(=O)c(-c3cc(F)cc(F)c3)nc3cnc(OC)nc32)c1", "AC50", "3.16 µM (inconclusive)"),
]

###

Calls of active or inactive are those of the source.
Quick record of IC50 values for UniProtKB P04406.
Sequence (P04406 whole entry): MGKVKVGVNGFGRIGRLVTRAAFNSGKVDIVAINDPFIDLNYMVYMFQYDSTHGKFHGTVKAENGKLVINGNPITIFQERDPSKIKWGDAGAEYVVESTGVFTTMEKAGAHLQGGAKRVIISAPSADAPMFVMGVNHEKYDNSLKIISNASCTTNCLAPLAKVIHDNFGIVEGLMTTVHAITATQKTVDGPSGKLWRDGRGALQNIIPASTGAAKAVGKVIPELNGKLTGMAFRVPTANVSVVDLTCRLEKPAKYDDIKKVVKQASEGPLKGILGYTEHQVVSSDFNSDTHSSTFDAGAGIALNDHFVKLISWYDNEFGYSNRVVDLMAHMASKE

# compound, IC50
data = [
    ("COc1ccc2c(c1)CCc1c-2n[nH]c1C(=O)O", "> 10 µM (inconclusive)"),
    ("Cc1cc(C)c2c(c1)NC(C(=O)O)C1CC=CC21 (centres undefined)", "91.4 µM (active)"),
    ("NCc1cc(-c2cccnc2)no1", "> 100 µM (not active)"),
    ("c1cncc(-c2cc[nH]n2)c1", "> 100 µM (not active)"),
    ("Cc1ccc2c(c1C)NC(C(=O)O)C1CC=CC21 (centres undefined)", "80.8 µM (active)"),
    ("CN(Cc1ccccc1)S(=O)(=O)c1ccc(C(=O)O)o1", "> 100 µM (not active)"),
    ("COc1cccc(N2CCN(C3=C(Cl)C(=O)N(c4ccc(C(F)(F)F)cc4)C3=O)CC2)c1", "> 50 µM (inconclusive)"),
    ("O=S(=O)(c1ccc2ccccc2c1)n1ccc2ccccc21", "> 100 µM (not active)"),
    ("CNC(=O)c1n[nH]c2c1COc1ccccc1-2", "> 100 µM (not active)"),
]

###

target: Lysosomal acid glucosylceramidase (Homo sapiens, UniProt P04062); assay: Dose response cell-based high throughput screening assay to identify enhancers of beta-glucosidase activity. [Related pubchem assays: 784 ]; assay type: functional
Sequence (P04062 whole entry): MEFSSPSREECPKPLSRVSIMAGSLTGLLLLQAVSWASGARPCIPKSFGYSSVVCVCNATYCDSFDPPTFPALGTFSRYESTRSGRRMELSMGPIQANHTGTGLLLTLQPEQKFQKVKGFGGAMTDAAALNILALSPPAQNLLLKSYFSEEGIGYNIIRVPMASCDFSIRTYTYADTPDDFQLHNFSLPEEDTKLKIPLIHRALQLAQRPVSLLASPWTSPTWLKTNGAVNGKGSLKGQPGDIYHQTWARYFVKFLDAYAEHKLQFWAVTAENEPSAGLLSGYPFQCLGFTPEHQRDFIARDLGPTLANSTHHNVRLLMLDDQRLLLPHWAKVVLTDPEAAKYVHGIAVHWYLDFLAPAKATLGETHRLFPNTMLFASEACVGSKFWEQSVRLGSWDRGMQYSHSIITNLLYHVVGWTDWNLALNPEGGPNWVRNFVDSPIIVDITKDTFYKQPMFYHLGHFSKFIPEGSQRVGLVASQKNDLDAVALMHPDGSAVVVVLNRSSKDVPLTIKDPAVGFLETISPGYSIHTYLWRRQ
Reported EC50 values for the following compounds.
readout_kind: EC50

# structure, readout_kind, test_result
measured = [
    ("Cc1ccc2c(c1)[C@H]1OCC[C@H]1[C@@H](c1ccncc1)N2", "EC50", "> 10 µM (not active)"),
    ("CCN1CCN(c2nc(-c3cccnc3)nc3ccccc23)CC1", "EC50", "> 50 µM (not active)"),
    ("CCn1c(CCNC(=O)c2ccc(Cl)cc2)nnc1SCC(=O)NC1CCCC1", "EC50", "> 50 µM (not active)"),
    ("FC(F)(F)c1ccc(N2CCOCC2)c(Nc2nc3ccccc3n3cnnc23)c1", "EC50", "> 50 µM (not active)"),
    ("CCn1c(SCC(=O)N2CCN(c3ccccc3)CC2)nnc1-c1cc2cc(Cl)ccc2o1", "EC50", "> 50 µM (not active)"),
]
